Source listed as patent US20260028365A1.

target: UniProtKB P29597; test: pSTAT4 Cell Assay (MSD, NK92 cells); format: cell-based; conditions: MSD
Sequence (P29597 whole entry): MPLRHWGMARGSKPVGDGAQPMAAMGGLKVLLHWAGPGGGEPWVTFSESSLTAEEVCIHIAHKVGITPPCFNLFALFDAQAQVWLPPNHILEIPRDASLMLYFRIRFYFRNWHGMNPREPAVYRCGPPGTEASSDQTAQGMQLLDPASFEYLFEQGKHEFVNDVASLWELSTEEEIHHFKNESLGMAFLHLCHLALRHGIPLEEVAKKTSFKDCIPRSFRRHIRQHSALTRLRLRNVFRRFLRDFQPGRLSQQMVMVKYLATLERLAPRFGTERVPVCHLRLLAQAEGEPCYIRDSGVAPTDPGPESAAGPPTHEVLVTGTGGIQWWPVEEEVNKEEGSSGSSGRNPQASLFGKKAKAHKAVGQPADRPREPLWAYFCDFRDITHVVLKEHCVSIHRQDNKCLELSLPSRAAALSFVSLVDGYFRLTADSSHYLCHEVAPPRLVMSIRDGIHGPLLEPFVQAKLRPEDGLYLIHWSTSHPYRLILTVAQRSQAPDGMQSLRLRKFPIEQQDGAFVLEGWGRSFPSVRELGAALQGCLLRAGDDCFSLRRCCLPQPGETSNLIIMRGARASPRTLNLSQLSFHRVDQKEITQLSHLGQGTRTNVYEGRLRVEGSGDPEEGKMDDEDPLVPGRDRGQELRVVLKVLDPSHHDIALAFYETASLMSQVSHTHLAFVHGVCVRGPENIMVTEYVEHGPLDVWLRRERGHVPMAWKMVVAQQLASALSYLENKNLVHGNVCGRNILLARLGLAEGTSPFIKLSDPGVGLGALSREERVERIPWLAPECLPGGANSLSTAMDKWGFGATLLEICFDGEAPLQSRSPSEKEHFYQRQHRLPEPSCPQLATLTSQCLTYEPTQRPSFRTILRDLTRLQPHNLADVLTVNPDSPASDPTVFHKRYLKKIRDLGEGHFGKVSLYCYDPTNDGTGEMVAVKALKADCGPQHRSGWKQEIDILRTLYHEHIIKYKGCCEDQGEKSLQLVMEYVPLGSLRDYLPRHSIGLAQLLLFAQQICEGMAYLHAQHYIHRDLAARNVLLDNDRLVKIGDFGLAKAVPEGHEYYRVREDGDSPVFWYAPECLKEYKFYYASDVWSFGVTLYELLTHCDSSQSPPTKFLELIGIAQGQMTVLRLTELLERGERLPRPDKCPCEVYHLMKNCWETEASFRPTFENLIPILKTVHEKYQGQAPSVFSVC
Readout Kind: IC50

* C=Cc1cc(Nc2cc(NC(C)=O)ncc2OCCOC)nc(C(C)(F)F)n1 [Example 55] | ≤ 10 nM
* CCc1cc(Nc2cc(NC(C)=O)ncc2-c2ncc(F)cn2)nc(C(C)(F)F)n1 [Example 183] | 10 to 100 nM
* CC(=O)Nc1cc(Nc2cc(C)nc(C(C)(F)F)n2)c(OCCCF)cn1 [Example 295] | 10 to 100 nM

Inquiry: Suppose we examine the compound CC(=O)Nc1cc(Nc2cc(C)nc(C(C)(F)F)n2)c(OCc2cnoc2)cn1 [Example 504] ; what IC50 value has been reported?
Reply text: 10 to 100 nM
